Below: a set of entries, each annotated with reported phosphorylation enrichment.
molecular target: Fyn (UniProt P06241); assay: phosphorylation enrichment, bacterial display (enrichment ratio); higher = better substrate or ligand; peptides without Tyr show the background;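 further: 11-residue human phosphosite peptides and single-mutation variants displayed on the E. coli surface, counted by deep sequencing, each peptide's frequency after selection divided by its frequency in the unselected input library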;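 further: frequency after pTyr selection over input frequency; kinase dosed for 20-30% of maximal phosphorylation in three min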
Sequence (P06241 whole entry, looked up): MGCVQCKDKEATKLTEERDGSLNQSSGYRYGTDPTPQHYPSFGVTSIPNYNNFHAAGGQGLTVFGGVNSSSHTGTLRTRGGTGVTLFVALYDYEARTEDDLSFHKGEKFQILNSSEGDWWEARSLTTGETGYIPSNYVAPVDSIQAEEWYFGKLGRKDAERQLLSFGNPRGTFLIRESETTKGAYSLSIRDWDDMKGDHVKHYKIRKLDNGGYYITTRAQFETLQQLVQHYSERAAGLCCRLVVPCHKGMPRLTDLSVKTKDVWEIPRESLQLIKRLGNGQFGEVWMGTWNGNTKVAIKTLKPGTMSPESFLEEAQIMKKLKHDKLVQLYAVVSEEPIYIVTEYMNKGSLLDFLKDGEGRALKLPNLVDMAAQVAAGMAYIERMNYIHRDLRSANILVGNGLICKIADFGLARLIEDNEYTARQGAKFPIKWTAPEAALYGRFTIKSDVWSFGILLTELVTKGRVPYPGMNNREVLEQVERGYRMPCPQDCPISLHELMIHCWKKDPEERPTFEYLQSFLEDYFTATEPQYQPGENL

IVFVICDEVVK [SLC25A1_Y297_Y297C] ... 0.442
FLQEIYNSNNQ [FGG_Y140_YF] ... 1.46

## Task Can you look up phosphorylation enrichment on Fyn (UniProt P06241) for EFFDGYWGFSV [ITGA2B_Y265_YF] ?
## Result 3.98

## Task Request: phosphorylation enrichment, test system Fyn (UniProt P06241), entry RGRKVYLEDGF [PRIM2_Y201]
## Result 0.698

## Task # get_value(readout= phosphorylation enrichment, system= Fyn (UniProt P06241)) for RFVTRHIFNRE [HLA-DQB1_Y62_Y62H_YF]
## Result 0.651

## Task Observed phosphorylation enrichment on Fyn (UniProt P06241) for RLLVIYPWTQR [HBG2_Y36_V35I] , please.
## Result 0.793

## Task Checklist item: phosphorylation enrichment tested on Fyn (UniProt P06241), entry GRLPEYNTPIA [CCDC151_Y542_R545P] , value?
## Result 0.442

## Task Request body: readout phosphorylation enrichment, system Fyn (UniProt P06241), query ILTFKYLQKPM [KIT_Y547_YF] . Return the value.
## Result 0.579

## Task Notebook entry, Fyn (UniProt P06241) assay: phosphorylation enrichment of NSNAAYEESHF [LRIF1_Y714_Q716E] = ?
## Result 0.434

## Task Write down the reported phosphorylation enrichment of AKKMKYFEGVS [PRKDC_Y682_I680M] , test system: Fyn (UniProt P06241).
## Result 0.419

## Task Under Fyn (UniProt P06241): phosphorylation enrichment value of QEIATYRRLQE [KRT14_Y415_L419Q] ?
## Result 0.578

## Task Hello, I am looking for reported phosphorylation enrichment with Fyn (UniProt P06241) for ESPGLYGFLNV [BCR_Y910] . Could you help?
## Result 1.48

## Task Can you look up phosphorylation enrichment on Fyn (UniProt P06241) for NGSFLYVIISQ [LRP1B_Y1988_R1987L] ?
## Result 0.367

## Task Lab note: need phosphorylation enrichment with Fyn (UniProt P06241) for entry HNQDGYSYLSR [LDLR_Y845_P848L] , please look it up.
## Result 0.624

## Task Which phosphorylation enrichment is reported with Fyn (UniProt P06241) for this entry: FQNGMYGLHQD [SGSH_Y89_H84Y_YF] ?
## Result 0.599

## Task phosphorylation enrichment of CTTIHYNFMCK [TP53_Y234_N239K_YF] on Fyn (UniProt P06241)?
## Result 0.476

## Task Identify the measured phosphorylation enrichment of PYAEPYADYGG [APBA1_Y187_S184A] for Fyn (UniProt P06241).
## Result 1.33

## Task phosphorylation enrichment of FEPDAYFDLDQ [ELP5_Y302_D303Y_YF] on Fyn (UniProt P06241)?
## Result 0.598

## Task // lookup phosphorylation enrichment | system=Fyn (UniProt P06241) | key= AKYLGYPPPEI [KDR_Y357]
## Result 0.321

## Task Enter reported phosphorylation enrichment observed with Fyn (UniProt P06241) for PFTRNYYVWAV [CYBA_Y87_R90W]
## Result 0.744

## Task Lookup: phosphorylation enrichment / Fyn (UniProt P06241) / FGYPGYQCKHY [TIMP3_Y177_S179C]
## Result 0.477
